assay.remarks: Bioavailability study of ilaprazole from 40-mg delayed-release tablets, plasma pharmacokinetics
Type: in vivo, human
cond: human, plasma, po, 40 mg, plasma ilaprazole, healthy adult subjects, single 40 mg oral dose (table title; text: 40 mg delayed-release tablet), fasted; read-out: Vz/F, Mean
observation.type: Vd/F (L)
Numeric answer only, unit L assumed.

Problem: Which Vd/F reading was recorded for the compound COc1ccnc(C[S+]([O-])c2nc3cc(-n4cccc4)ccc3[nH]2)c1C (racemic) [Form A] ?
Solution: 112
